# TEST_SYSTEM: T1, IL10Rα/IL2Rγ receptor (human, UniProt Q13651 22-578; P31785 23-369)
# T1 sequence (looked up) 1: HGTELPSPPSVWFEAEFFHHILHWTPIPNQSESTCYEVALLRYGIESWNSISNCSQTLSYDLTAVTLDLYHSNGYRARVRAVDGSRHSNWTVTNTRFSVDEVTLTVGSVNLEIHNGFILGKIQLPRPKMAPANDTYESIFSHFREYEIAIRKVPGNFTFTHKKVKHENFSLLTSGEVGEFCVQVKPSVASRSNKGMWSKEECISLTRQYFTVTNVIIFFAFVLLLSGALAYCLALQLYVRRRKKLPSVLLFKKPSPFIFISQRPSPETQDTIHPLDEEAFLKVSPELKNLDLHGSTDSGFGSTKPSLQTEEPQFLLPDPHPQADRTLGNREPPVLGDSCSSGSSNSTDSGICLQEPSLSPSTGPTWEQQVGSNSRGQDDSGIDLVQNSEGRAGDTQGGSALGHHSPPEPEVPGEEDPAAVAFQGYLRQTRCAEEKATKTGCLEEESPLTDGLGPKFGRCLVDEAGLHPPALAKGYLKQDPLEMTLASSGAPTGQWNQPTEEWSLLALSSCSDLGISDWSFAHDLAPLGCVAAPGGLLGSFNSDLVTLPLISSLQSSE
# T1 sequence (looked up) 2: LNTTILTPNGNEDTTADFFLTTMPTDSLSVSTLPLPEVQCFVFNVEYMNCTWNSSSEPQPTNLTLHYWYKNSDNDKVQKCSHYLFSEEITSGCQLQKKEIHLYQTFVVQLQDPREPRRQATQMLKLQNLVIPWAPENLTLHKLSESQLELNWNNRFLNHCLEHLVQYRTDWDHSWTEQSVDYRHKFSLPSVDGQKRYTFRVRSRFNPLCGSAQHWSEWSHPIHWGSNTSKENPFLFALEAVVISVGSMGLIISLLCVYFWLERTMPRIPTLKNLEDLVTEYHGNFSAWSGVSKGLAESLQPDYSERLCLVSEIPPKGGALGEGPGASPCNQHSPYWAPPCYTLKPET
# PROTOCOL_NOTES: cell-based or functional assay
MEASURED_PROPERTY: pSTAT3 MFI, B cells, 100 nM (unstimulated 1045) (MFI)
Give just the numeric value; MFI need not be written.

Solved entries:
DR466(DR240-DR232) (bispecific antibody) QVQLQESGGGSVQAGGSLRLSCGASGYTYSSYCMGWFRQVPGKEREGVAVIDSDGSTSYADSVKGRFTISKDNGKNTLYLQMNSLKPEDTAMYYCAADLGHYRPPCGVLYLGMDYWGKGTQVTVSSGGGSQVQLQESGGGSVQAGGSLRLSCVASGYTSCMGWFRQAPGKEREAVATIYTRGRSIYYADSVKGRFTISQDNAKNTLYLQMNSLKPEDIAMYSCAAGGYSWSAGCEFNYWGQGTQVTVSSASHHHHHH = 1100
DR474(DR241-DR234) (bispecific antibody) QVQLQESGGGSVQAGGSLRLSCAASGYSNCSYDMTWYRQAPGKEREFVSAIHSDGSTRYADSVKGRFFISQDNAKNTVYLQMNSLKPEDTAMYYCKTDPLHCRAHGGSWYSVRANYWGQGTQVTVSSGGGSQVQLQESGGGSVQAGGSLRLSCVASGYTFSSYCMGWFRQAPGKEREGVAALGGGSTYYADSVKGRFTISQDNAKNTLYLQMNSLKPEDTAMYYCAAAWVACLEFGGSWYDLARYKHWGQGTQVTVSSASHHHHHH = 1030
DR392(DR229-DR236) (bispecific antibody) QVQLQESGGGLVQPGGSLRLSCTASGFSFSSYPMTWARQAPGKGLEWVSTIASDGGSTAYAASVEGRFTISRDNAKSTLYLQLNSLKTEDTAMYYCTKGYGDGTPAPGQGTQVTVSSGGGSQVQLQESGGGSVQAGGSLRLSCAASRFTYSSYCMGWFRQAPGKEREGVASIDSDGSTSYTDSVKGRFTISKDNAKNTLYLQMNSLKPEDTAMYYCALDLMSTVVPGFCGFLLSAGMDYWGKGTQVTVSSASHHHHHH = 1060
DR442(DR236-DR232) (bispecific antibody) QVQLQESGGGSVQAGGSLRLSCAASRFTYSSYCMGWFRQAPGKEREGVASIDSDGSTSYTDSVKGRFTISKDNAKNTLYLQMNSLKPEDTAMYYCALDLMSTVVPGFCGFLLSAGMDYWGKGTQVTVSSGGGSQVQLQESGGGSVQAGGSLRLSCVASGYTSCMGWFRQAPGKEREAVATIYTRGRSIYYADSVKGRFTISQDNAKNTLYLQMNSLKPEDIAMYSCAAGGYSWSAGCEFNYWGQGTQVTVSSASHHHHHH = 1050
DR471(DR241-DR231) (bispecific antibody) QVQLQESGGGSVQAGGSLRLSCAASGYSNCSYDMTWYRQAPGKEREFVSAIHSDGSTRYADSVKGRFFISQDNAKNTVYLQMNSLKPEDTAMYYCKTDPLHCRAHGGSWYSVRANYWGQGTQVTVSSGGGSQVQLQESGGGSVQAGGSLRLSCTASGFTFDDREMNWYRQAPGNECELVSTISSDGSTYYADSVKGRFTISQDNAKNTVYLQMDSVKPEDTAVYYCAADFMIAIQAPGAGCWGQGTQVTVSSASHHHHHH = 1140

Ask: I am curious: what pSTAT3 MFI, B cells, 100 nM (unstimulated 1045) value has been reported for DR449(DR237-DR233) (bispecific antibody) QVQLQESGGGSVQAGGSLRLSCAASGYTYSMYCMGWFRQAPGKEREGVAQINSDGSTSYADSVKGRFTISKDNAKNTLYLQMNSLKPEDTAMYYCAADSRVYGGSWYERLCGPYTYEYNYWGQGTQVTVSSGGGSQVQLQESGGGSVQAGGSLRLSCTASGFTFDDSDMGWYRQAPGNECELVSTISSDGSTYYADSVKGRFTISQDNAKNTVYLQMNSLKPEDTAVYYCAAEPRGYYSNYGGRRECNYWGQGTQVTVSSASHHHHHH ?
Result: 1090

Ask: I am curious: what pSTAT3 MFI, B cells, 100 nM (unstimulated 1045) value has been reported for DR465(DR240-DR231) (bispecific antibody) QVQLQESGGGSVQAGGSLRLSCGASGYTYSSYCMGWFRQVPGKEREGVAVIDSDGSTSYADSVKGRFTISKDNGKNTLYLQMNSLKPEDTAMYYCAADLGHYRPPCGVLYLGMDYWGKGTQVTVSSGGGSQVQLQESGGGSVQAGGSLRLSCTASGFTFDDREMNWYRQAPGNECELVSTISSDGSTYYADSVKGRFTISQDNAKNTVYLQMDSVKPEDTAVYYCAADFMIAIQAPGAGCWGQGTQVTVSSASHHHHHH ?
Result: 1660

Ask: I am curious: what pSTAT3 MFI, B cells, 100 nM (unstimulated 1045) value has been reported for DR468(DR240-DR234) (bispecific antibody) QVQLQESGGGSVQAGGSLRLSCGASGYTYSSYCMGWFRQVPGKEREGVAVIDSDGSTSYADSVKGRFTISKDNGKNTLYLQMNSLKPEDTAMYYCAADLGHYRPPCGVLYLGMDYWGKGTQVTVSSGGGSQVQLQESGGGSVQAGGSLRLSCVASGYTFSSYCMGWFRQAPGKEREGVAALGGGSTYYADSVKGRFTISQDNAKNTLYLQMNSLKPEDTAMYYCAAAWVACLEFGGSWYDLARYKHWGQGTQVTVSSASHHHHHH ?
Result: 1080

Ask: I am curious: what pSTAT3 MFI, B cells, 100 nM (unstimulated 1045) value has been reported for DR438(DR235-DR234) (bispecific antibody) QVQLQESGGGSVQAGGSLRLSCAASRYLYSIDYMAWFRQSPGKEREPVAVIYTASGATFYPDSVKGRFTISQDNAKMTVYLQMNSLKSEDTAMYYCAAVRKTDSYLFDAQSFTYWGQGTQVTVSSGGGSQVQLQESGGGSVQAGGSLRLSCVASGYTFSSYCMGWFRQAPGKEREGVAALGGGSTYYADSVKGRFTISQDNAKNTLYLQMNSLKPEDTAMYYCAAAWVACLEFGGSWYDLARYKHWGQGTQVTVSSASHHHHHH ?
Result: 1050
